Reported values of melting point for individual entries
Quantity name: melting point

1. CCCCCCc1cc2c(cc1SCCCC(=O)O)C(=O)CC2 = 100 °C
2. CCCCCCc1cc2c(cc1NCC(=O)O)C(=O)CC2 [Example 38] = 144 °C
3. CCCCCCc1cc2c(cc1NCC(=O)O)C(=O)CC2 [Example 36] = 110 °C
4. CCCCCCc1cc2c(cc1OCCCC(=O)O)C(=NO)CC2 = 148 °C
